assay method text: in vivo
condition notes: both, Sprague-Dawley, rat, iv, 15 mg/kg

{"compound": "CC(C)(C)[C@H](NC(=O)C(F)(F)F)C(=O)N1CC2(C[C@H]1C(=O)N[C@H](C#N)C[C@@H]1CCNC1=O)SCCS2 [compound 9, simnotrelvir]", "Vd": "1.36 L/kg"}

---

assay method text: in vivo
condition notes: both, Sprague-Dawley, rat, po, 15 mg/kg
measured parameter: AUC(0-inf) (ng·h/mL)

{"compound": "CC(C)(C)[C@H](NC(=O)C(F)(F)F)C(=O)N1CC2(C[C@H]1C(=O)N[C@H](C#N)C[C@@H]1CCNC1=O)SCCS2 [compound 9, simnotrelvir]", "numeric readout": 1730}

---

Measured pEC50 of individual entries
Test system: SARS-CoV-2 Delta strain
assay method text: microbe, parasite or virus in culture
Assay type: cell-based
condition notes: read-out: EC50^CP
pEC50: −log10 of the molar value.

{"compound": "CC(C)(C)[C@H](NC(=O)C(F)(F)F)C(=O)N1C[C@H]2[C@@H]([C@H]1C(=O)N[C@H](C#N)C[C@@H]1CCNC1=O)C2(C)C [nirmatrelvir, reference compound]", "pEC50": 7.52}
{"compound": "CC(C)(C)NC(=O)N[C@H](C(=O)N1C[C@H]2[C@@H]([C@H]1C(=O)N[C@H](C#N)C[C@@H]1CCNC1=O)C2(C)C)C(C)(C)C", "pEC50": 6.50}
{"compound": "CC(C)(C)[C@H](NC(=O)C(F)(F)F)C(=O)N1CC2(C[C@H]1C(=O)N[C@H](C#N)C[C@@H]1CCNC1=O)SCCS2", "pEC50": 7.47}
{"compound": "CC(C)(C)NC(=O)N[C@H](C(=O)N1CC2(C[C@H]1C(=O)N[C@H](C#N)C[C@@H]1CCNC1=O)SCCS2)C(C)(C)C", "pEC50": 6.66}

---

assay method text: in vivo
condition notes: both, Sprague-Dawley, rat, po

{"smiles string": "CC(C)(C)[C@H](NC(=O)C(F)(F)F)C(=O)N1CC2(C[C@H]1C(=O)N[C@H](C#N)C[C@@H]1CCNC1=O)SCCS2", "half-life [h]": 1.99}

---

assay method text: in vivo
condition notes: both, cynomolgus monkey, po

{"smiles string": "CC(C)(C)[C@H](NC(=O)C(F)(F)F)C(=O)N1CC2(C[C@H]1C(=O)N[C@H](C#N)C[C@@H]1CCNC1=O)SCCS2", "display unit": "ng·h/mL", "AUC(0-inf)": 17200}

---

assay method text: in vivo
condition notes: both, cynomolgus monkey, iv, 5 mg/kg

{"smiles string": "CC(C)(C)[C@H](NC(=O)C(F)(F)F)C(=O)N1CC2(C[C@H]1C(=O)N[C@H](C#N)C[C@@H]1CCNC1=O)SCCS2", "clearance [mL/min/kg]": 20.7}

---

assayed target: SARS-CoV-2 3CL^pro (Severe acute respiratory syndrome coronavirus 2, UniProt P0DTD1)
assay method text: biochemical
condition notes: concentration 500.00 nM; read-out: inhibition ratio (%)
measured parameter: inhibition at 0.5 µM (%)

{"smiles string": "CC(C)(C)NC(=O)N[C@H](C(=O)N1CC2(C[C@H]1C(=O)N[C@H](C#N)C[C@@H]1CCNC1=O)SCCS2)C(C)(C)C", "assayed target": "SARS-CoV-2 3CL^pro (Severe acute respiratory syndrome coronavirus 2, UniProt P0DTD1)", "numeric readout": 97.8}
{"smiles string": "CC(=O)/C=C/[C@H](C[C@@H]1CCNC1=O)NC(=O)[C@@H]1[C@@H]2[C@H](CN1C(=O)[C@@H](NC(=O)NC(C)(C)C)C(C)(C)C)C2(C)C", "assayed target": "SARS-CoV-2 3CL^pro (Severe acute respiratory syndrome coronavirus 2, UniProt P0DTD1)", "numeric readout": 101}
{"smiles string": "CC(C)(C)NC(=O)N[C@H](C(=O)N1C[C@H]2[C@@H]([C@H]1C(=O)N[C@H](C#N)C[C@@H]1CCNC1=O)C2(C)C)C(C)(C)C", "assayed target": "SARS-CoV-2 3CL^pro (Severe acute respiratory syndrome coronavirus 2, UniProt P0DTD1)", "numeric readout": 100}
{"smiles string": "CC(C)(C)NC(=O)N[C@H](C(=O)N1C[C@@H]2CCC[C@@H]2[C@H]1C(=O)N[C@H](C#N)C[C@@H]1CCNC1=O)C(C)(C)C", "assayed target": "SARS-CoV-2 3CL^pro (Severe acute respiratory syndrome coronavirus 2, UniProt P0DTD1)", "numeric readout": 93.2}

---

assay method text: in vitro
condition notes: monkey, plasma

{"smiles string": "CC(C)(C)[C@H](NC(=O)C(F)(F)F)C(=O)N1CC2(C[C@H]1C(=O)N[C@H](C#N)C[C@@H]1CCNC1=O)SCCS2", "fraction unbound": 0.193}

---

assayed target: UniProt P0DTD1
assay method text: biochemical
condition notes: concentration 31.25 nM; read-out: inhibition ratio (%)
measured parameter: inhibition at 0.03125 µM

{"molecule": "CC(=O)/C=C/[C@H](C[C@@H]1CCNC1=O)NC(=O)[C@@H]1[C@@H]2[C@H](CN1C(=O)[C@@H](NC(=O)NC(C)(C)C)C(C)(C)C)C2(C)C [compound 3]", "measured parameter": "inhibition at 0.03125 µM", "result": "85.4%"}
{"molecule": "CC(C)(C)NC(=O)N[C@H](C(=O)N1C[C@H]2[C@@H]([C@H]1C(=O)N[C@H](C#N)C[C@@H]1CCNC1=O)C2(C)C)C(C)(C)C [compound 2]", "measured parameter": "inhibition at 0.03125 µM", "result": "59.6%"}
{"molecule": "CC(C)(C)NC(=O)N[C@H](C(=O)N1C[C@@H]2CCC[C@@H]2[C@H]1C(=O)N[C@H](C#N)C[C@@H]1CCNC1=O)C(C)(C)C [compound 8]", "measured parameter": "inhibition at 0.03125 µM", "result": "37.9%"}
{"molecule": "CC(C)(C)NC(=O)N[C@H](C(=O)N1C[C@H]2[C@@H]([C@H]1C(=O)N[C@H](C=O)C[C@@H]1CCNC1=O)C2(C)C)C(C)(C)C [compound 1]", "measured parameter": "inhibition at 0.03125 µM", "result": "81.7%"}

---

Test system: CYP3A4/5
assay method text: in vitro
condition notes: human, microsomes, […]
measured parameter: activity at 1 µM

{"smiles string": "CC(C)(C)[C@H](NC(=O)C(F)(F)F)C(=O)N1CC2(C[C@H]1C(=O)N[C@H](C#N)C[C@@H]1CCNC1=O)SCCS2", "measured parameter": "activity at 1 µM", "result": "101%"}

---

Tested on: CYP3A4/5
assay method text: in vitro
condition notes: human, microsomes, […], 33.3 μM

{"compound": "CC(C)(C)[C@H](NC(=O)C(F)(F)F)C(=O)N1CC2(C[C@H]1C(=O)N[C@H](C#N)C[C@@H]1CCNC1=O)SCCS2 [compound 9, simnotrelvir]", "activity at 33.3 µM [%]": 46.6}

---

assay method text: in vivo
condition notes: both, cynomolgus monkey, 5 mg/kg

{"molecule": "CC(C)(C)[C@H](NC(=O)C(F)(F)F)C(=O)N1CC2(C[C@H]1C(=O)N[C@H](C#N)C[C@@H]1CCNC1=O)SCCS2 [compound 9, simnotrelvir]", "bioavailability / %": 41.9}

---

assayed target: SARS-CoV-2 3CL^pro (Severe acute respiratory syndrome coronavirus 2, UniProt P0DTD1)
assay method text: biochemical
condition notes: IC50

{"smiles string": "CC(C)(C)NC(=O)N[C@H](C(=O)N1CC[C@@H](Oc2ccccc2)[C@H]1C(=O)N[C@H](C#N)C[C@@H]1CCNC1=O)C(C)(C)C", "IC50": "6940 nM"}
{"smiles string": "CC(=O)/C=C/[C@H](C[C@@H]1CCNC1=O)NC(=O)[C@@H]1[C@@H]2[C@H](CN1C(=O)[C@@H](NC(=O)NC(C)(C)C)C(C)(C)C)C2(C)C", "IC50": "14 nM"}
{"smiles string": "CC(C)(C)NC(=O)N[C@H](C(=O)N1C[C@@H]2CCC[C@@H]2[C@H]1C(=O)N[C@H](C#N)C[C@@H]1CCNC1=O)C(C)(C)C", "IC50": "50 nM"}
{"smiles string": "CC(C)(C)NC(=O)N[C@H](C(=O)N1C[C@@H](c2ccccc2)C[C@H]1C(=O)N[C@H](C#N)C[C@@H]1CCNC1=O)C(C)(C)C", "IC50": "814 nM"}
{"smiles string": "CC(C)(C)NC(=O)N[C@H](C(=O)N1C[C@@H](Sc2ccccc2)C[C@H]1C(=O)N[C@H](C#N)C[C@@H]1CCNC1=O)C(C)(C)C", "IC50": "7210 nM"}

---

Test system: CYP3A4/5
assay method text: in vitro
condition notes: human, microsomes, […], 100 μM

{"smiles string": "CC(C)(C)[C@H](NC(=O)C(F)(F)F)C(=O)N1CC2(C[C@H]1C(=O)N[C@H](C#N)C[C@@H]1CCNC1=O)SCCS2", "assayed target": "CYP3A4/5", "activity at 100 µM / %": 21.8}
